B1: VH:VL chains; a variant is named by its letters at X, in order (parent)
chain 1: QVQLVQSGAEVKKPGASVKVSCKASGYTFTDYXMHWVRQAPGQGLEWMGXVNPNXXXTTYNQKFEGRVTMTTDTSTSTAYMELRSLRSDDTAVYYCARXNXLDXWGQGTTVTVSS
chain 2: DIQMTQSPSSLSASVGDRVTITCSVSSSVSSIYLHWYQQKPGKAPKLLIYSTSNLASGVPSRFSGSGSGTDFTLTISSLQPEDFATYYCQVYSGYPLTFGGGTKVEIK

# Variants of: B1
# PROTOCOL SUMMARY: yeast display scFab, FACS + sequencing

[
  {
    "MUTANT LABEL": "YRTAGAGD",
    "non-specific binding call": "binds"
  },
  {
    "MUTANT LABEL": "VKGGGYGA",
    "non-specific binding call": "binds"
  },
  {
    "MUTANT LABEL": "SKRKSSSD",
    "non-specific binding call": "binds"
  },
  {
    "MUTANT LABEL": "SRGRGSLS",
    "non-specific binding call": "binds"
  },
  {
    "MUTANT LABEL": "VKGKGAAF",
    "non-specific binding call": "binds"
  },
  {
    "MUTANT LABEL": "YRGKASGD",
    "non-specific binding call": "binds"
  },
  {
    "MUTANT LABEL": "VEKGGSGV",
    "non-specific binding call": "no binding"
  },
  {
    "MUTANT LABEL": "YRERGSWV",
    "non-specific binding call": "binds"
  },
  {
    "MUTANT LABEL": "FKGTDSSD",
    "non-specific binding call": "binds"
  },
  {
    "MUTANT LABEL": "AGETGFSA",
    "non-specific binding call": "binds"
  },
  {
    "MUTANT LABEL": "SKGRGSAA",
    "non-specific binding call": "binds"
  },
  {
    "MUTANT LABEL": "VRTEDASF",
    "non-specific binding call": "no binding"
  }
]
